- target.entity: hOGA (Homo sapiens, UniProt O60502)
- Sequence (O60502 1-916): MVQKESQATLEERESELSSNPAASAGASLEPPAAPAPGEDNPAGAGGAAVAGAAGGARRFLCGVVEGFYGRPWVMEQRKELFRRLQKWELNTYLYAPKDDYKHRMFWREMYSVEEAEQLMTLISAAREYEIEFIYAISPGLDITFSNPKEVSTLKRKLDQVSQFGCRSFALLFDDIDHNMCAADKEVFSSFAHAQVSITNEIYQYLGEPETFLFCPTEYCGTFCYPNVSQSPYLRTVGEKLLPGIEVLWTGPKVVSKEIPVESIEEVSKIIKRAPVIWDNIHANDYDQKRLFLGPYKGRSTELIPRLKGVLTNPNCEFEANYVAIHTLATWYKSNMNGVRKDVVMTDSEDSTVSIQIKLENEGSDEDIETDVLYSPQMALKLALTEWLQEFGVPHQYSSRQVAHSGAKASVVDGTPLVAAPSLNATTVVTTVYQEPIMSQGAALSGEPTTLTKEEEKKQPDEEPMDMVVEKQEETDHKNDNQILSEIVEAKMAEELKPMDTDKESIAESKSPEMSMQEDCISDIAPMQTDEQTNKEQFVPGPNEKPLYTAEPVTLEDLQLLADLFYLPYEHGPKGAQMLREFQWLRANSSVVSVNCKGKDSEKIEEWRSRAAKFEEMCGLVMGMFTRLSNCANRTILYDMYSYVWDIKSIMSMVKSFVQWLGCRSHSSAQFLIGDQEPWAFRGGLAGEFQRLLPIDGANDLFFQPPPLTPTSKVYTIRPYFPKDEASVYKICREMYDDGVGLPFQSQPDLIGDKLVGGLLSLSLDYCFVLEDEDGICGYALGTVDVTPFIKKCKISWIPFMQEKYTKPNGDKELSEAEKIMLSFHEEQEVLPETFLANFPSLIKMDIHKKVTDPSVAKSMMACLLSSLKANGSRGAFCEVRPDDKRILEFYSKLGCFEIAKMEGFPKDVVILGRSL
pKi: −log10 of the molar value. Counter-ions that a name gives are not always drawn.
value.kind: pKi

Field: example entries. Status: answers known.
# compound, pKi
rows = [
    ("CCC(=O)N[C@H]1CN2/C(=N/Cc3cccc4ccccc34)SC[C@@H]2[C@@H](O)[C@@H]1O [Compound 14, hydrochloride]", 9.15),
    ("CC(=O)N[C@H]1CN2/C(=N/Cc3cccc4ccccc34)SC[C@@H]2[C@@H](O)[C@@H]1O [Compound 5, Hydrochloride]", 9.53),
    ("COc1ccc(C/N=C2\\SC[C@@H]3[C@@H](O)[C@H](O)[C@@H](NC(C)=O)CN23)cc1 [Compound 7, Hydrochloride]", 7.56),
    ("CCCCN=C1SCC2C(O)C(O)C(NC(C)=O)CN12 (centres unmarked) [Compound 1, Hydrochloride]", 7.62),
    ("CCCC(=O)N[C@H]1CN2/C(=N/Cc3ccccc3)SC[C@@H]2[C@@H](O)[C@@H]1O", 6.47),
    ("CC(=O)N[C@H]1CN2/C(=N/Cc3ccc(CN=[N+]=[N-])cc3)SC[C@@H]2[C@@H](O)[C@@H]1O [Compound 11, Hydrochloride]", 9.36),
    ("CC(=O)N[C@H]1CN2/C(=N/Cc3cccc(CN=[N+]=[N-])c3)SC[C@@H]2[C@@H](O)[C@@H]1O [Compound 10, Hydrochloride]", 9.65),
    ("CCCCCCCCN=C1SCC2C(O)C(O)C(NC(C)=O)CN12 (centres unmarked) [Compound 2, Hydrochloride]", 7.70),
]

a. CC(=O)N[C@H]1CN2/C(=N/Cc3ccccc3)SC[C@@H]2[C@@H](O)[C@@H]1O [Compound 4, Hydrochloride]
b. CC(=O)N[C@H]1CN2/C(=N/Cc3ccc(F)cc3)SC[C@@H]2[C@@H](O)[C@@H]1O [Compound 6, Hydrochloride]
c. CCC(=O)N[C@H]1CN2/C(=N/Cc3ccccc3)SC[C@@H]2[C@@H](O)[C@@H]1O [Compound 13, Hydrochloride]
Exam item: Order the items by recorded pKi; the first position goes to the largest value. Field: ranking. Enter the labels in the order requested.
Marked response: a, c, b
(a: 8.52, c: 8.10, b: 7.27)
